Consider the following molecules; for each one, report its EC50.
target.under.test: […]F508-CFTR (Homo sapiens, UniProt P13569, DEL508-508)
Sequence (P13569 with tags, fused parts or gaps DEL508-508): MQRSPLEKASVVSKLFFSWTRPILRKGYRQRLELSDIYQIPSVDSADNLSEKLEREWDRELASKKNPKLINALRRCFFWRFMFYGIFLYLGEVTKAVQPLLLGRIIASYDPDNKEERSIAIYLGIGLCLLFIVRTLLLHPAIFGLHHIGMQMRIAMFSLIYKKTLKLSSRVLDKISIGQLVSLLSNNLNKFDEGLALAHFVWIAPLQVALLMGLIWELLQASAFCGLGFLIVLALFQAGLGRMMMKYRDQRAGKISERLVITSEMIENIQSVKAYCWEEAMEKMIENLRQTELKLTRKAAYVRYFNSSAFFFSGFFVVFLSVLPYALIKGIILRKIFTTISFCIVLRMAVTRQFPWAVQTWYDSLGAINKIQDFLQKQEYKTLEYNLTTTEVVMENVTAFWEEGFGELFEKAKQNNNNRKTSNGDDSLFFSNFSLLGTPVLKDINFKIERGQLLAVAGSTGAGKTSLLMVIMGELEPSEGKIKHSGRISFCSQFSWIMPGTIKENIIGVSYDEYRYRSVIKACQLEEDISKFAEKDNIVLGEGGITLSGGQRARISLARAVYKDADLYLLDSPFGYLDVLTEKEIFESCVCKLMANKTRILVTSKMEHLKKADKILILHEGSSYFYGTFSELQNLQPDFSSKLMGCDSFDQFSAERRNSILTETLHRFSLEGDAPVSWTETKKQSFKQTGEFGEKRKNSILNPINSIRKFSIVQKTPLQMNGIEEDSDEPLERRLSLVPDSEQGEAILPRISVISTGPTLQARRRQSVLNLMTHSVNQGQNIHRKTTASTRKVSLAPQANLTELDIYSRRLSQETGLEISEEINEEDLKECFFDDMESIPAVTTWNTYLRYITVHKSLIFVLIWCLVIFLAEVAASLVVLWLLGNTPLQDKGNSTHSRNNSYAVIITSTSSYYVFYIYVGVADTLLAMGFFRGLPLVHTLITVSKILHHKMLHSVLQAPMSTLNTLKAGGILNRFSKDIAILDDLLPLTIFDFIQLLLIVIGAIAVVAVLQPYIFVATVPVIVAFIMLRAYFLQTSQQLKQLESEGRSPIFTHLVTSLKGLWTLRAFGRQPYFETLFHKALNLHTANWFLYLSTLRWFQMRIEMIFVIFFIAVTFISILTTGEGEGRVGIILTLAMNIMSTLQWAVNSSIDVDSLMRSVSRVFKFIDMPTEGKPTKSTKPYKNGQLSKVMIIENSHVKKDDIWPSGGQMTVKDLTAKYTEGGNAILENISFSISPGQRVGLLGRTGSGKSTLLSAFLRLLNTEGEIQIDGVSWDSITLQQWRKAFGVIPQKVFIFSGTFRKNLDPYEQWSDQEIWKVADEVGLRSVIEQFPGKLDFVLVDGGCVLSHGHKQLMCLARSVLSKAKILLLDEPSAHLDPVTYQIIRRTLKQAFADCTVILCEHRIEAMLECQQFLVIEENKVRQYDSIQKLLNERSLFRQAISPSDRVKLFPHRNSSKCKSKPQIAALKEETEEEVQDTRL
protocol.summary: Assay results of Table 3: ΔF508-CFTR modulation, membrane potential optical assay (assay format not stated)
reported.conditions: potency range; NIH3T3 mouse fibroblasts stably expressing […]F508-CFTR (optical assays)

(Q) Any idea what its EC50 is? The molecule is "CNc1nc(C(N)=O)cc(-c2cccc(OC)c2)n1"
(A) > 5 µM

(Q) "CCN(CC)c1nc(C(N)=O)cc(-c2ccc(OC)cc2OC)n1" , same question.
(A) 1 to 5 µM

(Q) Param item: "COc1ccc(C2(CNc3nc(C(N)=O)cc(-c4ccccc4)n3)CCCC2)cc1OC"
(A) 1 to 5 µM

(Q) Can you check "CN(Cc1ccccc1)c1nc(C(N)=O)cc(-c2ccccc2)n1" next?
(A) 1 to 5 µM

(Q) Try this molecule next: "CCN(CC)c1nc(C(N)=O)cc(-c2ccc(OC(F)(F)F)cc2)n1"
(A) < 1 µM

(Q) Quick one: "CC(C)(C)Nc1nc(C(N)=O)cc(-c2ccccc2)n1"
(A) > 5 µM

(Q) Next entry: "CCN(CC)c1nc(C(N)=O)cc(-c2cc(F)cc(F)c2)n1"
(A) 1 to 5 µM

(Q) Same for "COc1ccc(-c2cc(C(N)=O)nc(NCC3CC3)n2)cc1"
(A) > 5 µM

(Q) Continue with "CCCN(CCC)c1nc(C(N)=O)cc(-c2ccccc2)n1"
(A) 1 to 5 µM
